- Tested on: NCI-H23
- test: relative viability (nuclei count vs DMSO), 5 days (fraction); higher = more cells survive
- protocolConditions: first compound 0.3162 µM
recordedEndpoint: relative viability
Lab note: record just the number, no unit beside it.

Request the reported relative viability associated with NC(=O)Nc1cc(-c2cccc(F)c2)sc1C(=O)N[C@H]1CCCNC1 [AZD7762] + CS(=O)(=O)CCNCc1ccc(-c2ccc3ncnc(Nc4ccc(OCc5cccc(F)c5)c(Cl)c4)c3c2)o1 [Lapatinib] (partner 2 µM)
0.508

Let us now turn to NC(=O)Nc1cc(-c2cccc(F)c2)sc1C(=O)N[C@H]1CCCNC1 [AZD7762] + C[C@]1(O)C[C@@H](c2nc(-c3ccc4ccc(-c5ccccc5)nc4c3)c3c(N)nccn32)C1 [Linsitinib] (partner 1 µM)
0.517

----------
- System: NCI-H1944
- test: relative viability (nuclei count vs DMSO), 5 days (fraction); higher = more cells survive
- protocolConditions: first compound 0.08 µM
recordedEndpoint: relative viability
Lab note: record just the number, no unit beside it.

Request the reported relative viability associated with Oc1nc(-c2ccc(C(F)(F)F)cc2)nc2c1CSCC2 [XAV939] + C[C@@H](Oc1cc(-c2cnn(C3CCNCC3)c2)cnc1N)c1c(Cl)ccc(F)c1Cl [Crizotinib] (partner 1 µM)
1.32

Let us now turn to C=C1C(=O)O[C@@H](CCCCCCCC)[C@@H]1C(=O)O [C-75] + CS(=O)(=O)CCNCc1ccc(-c2ccc3ncnc(Nc4ccc(OCc5cccc(F)c5)c(Cl)c4)c3c2)o1 [Lapatinib] (partner 2 µM)
0.792

Let us now turn to C=C1C(=O)O[C@@H](CCCCCCCC)[C@@H]1C(=O)O [C-75] + CC1(C)CCC(c2ccc(Cl)cc2)=C(CN2CCN(c3ccc(C(=O)NS(=O)(=O)c4ccc(N[C@H](CCN5CCOCC5)CSc5ccccc5)c(S(=O)(=O)C(F)(F)F)c4)cc3)CC2)C1 [Navitoclax] (partner 0.5 µM)
1.03

Let us now turn to C=C1C(=O)O[C@@H](CCCCCCCC)[C@@H]1C(=O)O [C-75] + CCNC(=O)c1noc(-c2cc(C(C)C)c(O)cc2O)c1-c1ccc(CN2CCOCC2)cc1 [Luminespib] (partner 0.01 µM)
0.777

Let us now turn to Oc1nc(-c2ccc(C(F)(F)F)cc2)nc2c1CSCC2 [XAV939] + CS(=O)(=O)CCNCc1ccc(-c2ccc3ncnc(Nc4ccc(OCc5cccc(F)c5)c(Cl)c4)c3c2)o1 [Lapatinib] (partner 2 µM)
1.16

Let us now turn to C=C1C(=O)O[C@@H](CCCCCCCC)[C@@H]1C(=O)O [C-75] + COc1cccc2cc(-c3nc([C@H]4CC[C@H](C(=O)O)CC4)n4ncnc(N)c34)[nH]c12 [OSI-027] (partner 0.5 µM)
0.441

Let us now turn to C=C1C(=O)O[C@@H](CCCCCCCC)[C@@H]1C(=O)O [C-75] + NC(=O)Nc1cc(-c2cccc(F)c2)sc1C(=O)N[C@H]1CCCNC1 [AZD7762] (partner 0.2 µM)
0.566

Let us now turn to C=C1C(=O)O[C@@H](CCCCCCCC)[C@@H]1C(=O)O [C-75] + Cc1cc(Nc2cc(N3CCN(C)CC3)nc(Sc3ccc(NC(=O)C4CC4)cc3)n2)n[nH]1 [Tozasertib] (partner 0.1 µM)
0.256

Let us now turn to C=C1C(=O)O[C@@H](CCCCCCCC)[C@@H]1C(=O)O [C-75] + CC(=O)Nc1cccc(-n2c(=O)n(C3CC3)c(=O)c3c(Nc4ccc(I)cc4F)n(C)c(=O)c(C)c32)c1 [Trametinib] (partner 0.02 µM)
0.397

----------
- Tested on: NCI-H1993
- test: relative viability (nuclei count vs DMSO), 5 days (fraction); higher = more cells survive
- protocolConditions: first compound 0.5 µM
recordedEndpoint: relative viability
Lab note: record just the number, no unit beside it.

Request the reported relative viability associated with CC1(C)CCC(c2ccc(Cl)cc2)=C(CN2CCN(c3ccc(C(=O)NS(=O)(=O)c4ccc(N[C@H](CCN5CCOCC5)CSc5ccccc5)c(S(=O)(=O)C(F)(F)F)c4)cc3)CC2)C1 [Navitoclax] + Nc1nc2[nH]cc(CCc3ccc(C(=O)N[C@@H](CCC(=O)O)C(=O)O)cc3)c2c(=O)[nH]1 [Pemetrexed] (partner 0.2 µM)
0.677

Let us now turn to CC1(C)CCC(c2ccc(Cl)cc2)=C(CN2CCN(c3ccc(C(=O)NS(=O)(=O)c4ccc(N[C@H](CCN5CCOCC5)CSc5ccccc5)c(S(=O)(=O)C(F)(F)F)c4)cc3)CC2)C1 [Navitoclax] + CCNC(=O)c1noc(-c2cc(C(C)C)c(O)cc2O)c1-c1ccc(CN2CCOCC2)cc1 [Luminespib] (partner 0.01 µM)
0.803

Let us now turn to CC1(C)CCC(c2ccc(Cl)cc2)=C(CN2CCN(c3ccc(C(=O)NS(=O)(=O)c4ccc(N[C@H](CCN5CCOCC5)CSc5ccccc5)c(S(=O)(=O)C(F)(F)F)c4)cc3)CC2)C1 [Navitoclax] + COc1cc2c(Oc3ccc(NC(=O)C4(C(=O)Nc5ccc(F)cc5)CC4)cc3F)ccnc2cc1OCCCN1CCOCC1 [Foretinib] (partner 0.25 µM)
0.862

----------
Task for the reader: assign each of the following compounds its reported relative viability.
- Tested on: BEN
- test: relative viability (nuclei count vs DMSO), 5 days (fraction); higher = more cells survive
- protocolConditions: first compound 0.05 µM
Lab note: record just the number, no unit beside it.

Request the reported relative viability associated with CC1(C)CCC(c2ccc(Cl)cc2)=C(CN2CCN(c3ccc(C(=O)NS(=O)(=O)c4ccc(N[C@H](CCN5CCOCC5)CSc5ccccc5)c(S(=O)(=O)C(F)(F)F)c4)cc3)CC2)C1 [Navitoclax] + CS(=O)(=O)CCNCc1ccc(-c2ccc3ncnc(Nc4ccc(OCc5cccc(F)c5)c(Cl)c4)c3c2)o1 [Lapatinib] (partner 2 µM)
0.772

Let us now turn to CC1(C)CCC(c2ccc(Cl)cc2)=C(CN2CCN(c3ccc(C(=O)NS(=O)(=O)c4ccc(N[C@H](CCN5CCOCC5)CSc5ccccc5)c(S(=O)(=O)C(F)(F)F)c4)cc3)CC2)C1 [Navitoclax] + CC(C)C[C@H](NC(=O)[C@H](Cc1ccccc1)NC(=O)c1cnccn1)B(O)O [Bortezomib] (partner 0.002 µM)
0.664

Let us now turn to CC1(C)CCC(c2ccc(Cl)cc2)=C(CN2CCN(c3ccc(C(=O)NS(=O)(=O)c4ccc(N[C@H](CCN5CCOCC5)CSc5ccccc5)c(S(=O)(=O)C(F)(F)F)c4)cc3)CC2)C1 [Navitoclax] + Nc1nc2[nH]cc(CCc3ccc(C(=O)N[C@@H](CCC(=O)O)C(=O)O)cc3)c2c(=O)[nH]1 [Pemetrexed] (partner 0.2 µM)
0.74

----------
- System: NCI-H2009
- test: relative viability (nuclei count vs DMSO), 5 days (fraction); higher = more cells survive
- protocolConditions: first compound 2.53 µM
recordedEndpoint: relative viability

Request the reported relative viability associated with Oc1nc(-c2ccc(C(F)(F)F)cc2)nc2c1CSCC2 [XAV939] + CS(=O)(=O)CCNCc1ccc(-c2ccc3ncnc(Nc4ccc(OCc5cccc(F)c5)c(Cl)c4)c3c2)o1 [Lapatinib] (partner 2 µM)
0.771

Let us now turn to Oc1nc(-c2ccc(C(F)(F)F)cc2)nc2c1CSCC2 [XAV939] + O=C(CCCCCCC(=O)Nc1ccccc1)NO [Vorinostat] (partner 1 µM)
0.536

Let us now turn to Oc1nc(-c2ccc(C(F)(F)F)cc2)nc2c1CSCC2 [XAV939] + COc1cccc2cc(-c3nc([C@H]4CC[C@H](C(=O)O)CC4)n4ncnc(N)c34)[nH]c12 [OSI-027] (partner 0.5 µM)
0.369

----------
- Tested on: CAL-12T
- test: relative viability (nuclei count vs DMSO), 5 days (fraction); higher = more cells survive
- protocolConditions: first compound 8 µM
Task for the reader: assign each of the following molecules its reported relative viability.
Lab note: record just the number, no unit beside it.

Request the reported relative viability associated with C=C1C(=O)O[C@@H](CCCCCCCC)[C@@H]1C(=O)O [C-75] + NC(=O)Nc1cc(-c2cccc(F)c2)sc1C(=O)N[C@H]1CCCNC1 [AZD7762] (partner 0.2 µM)
0.64

Let us now turn to C=C1C(=O)O[C@@H](CCCCCCCC)[C@@H]1C(=O)O [C-75] + C[C@]1(O)C[C@@H](c2nc(-c3ccc4ccc(-c5ccccc5)nc4c3)c3c(N)nccn32)C1 [Linsitinib] (partner 1 µM)
0.792

Let us now turn to C=C1C(=O)O[C@@H](CCCCCCCC)[C@@H]1C(=O)O [C-75] + CS(=O)(=O)N1CCN(Cc2cc3nc(-c4cccc5[nH]ncc45)nc(N4CCOCC4)c3s2)CC1 [Pictilisib] (partner 1 µM)
0.486

Let us now turn to C=C1C(=O)O[C@@H](CCCCCCCC)[C@@H]1C(=O)O [C-75] + COc1cc2c(Oc3ccc(NC(=O)C4(C(=O)Nc5ccc(F)cc5)CC4)cc3F)ccnc2cc1OCCCN1CCOCC1 [Foretinib] (partner 0.25 µM)
1.25

Let us now turn to C=C1C(=O)O[C@@H](CCCCCCCC)[C@@H]1C(=O)O [C-75] + CS(=O)(=O)CCNCc1ccc(-c2ccc3ncnc(Nc4ccc(OCc5cccc(F)c5)c(Cl)c4)c3c2)o1 [Lapatinib] (partner 2 µM)
0.765

Let us now turn to C=C1C(=O)O[C@@H](CCCCCCCC)[C@@H]1C(=O)O [C-75] + Cc1nc(NC(=O)N2CCC[C@H]2C(N)=O)sc1-c1ccnc(C(C)(C)C(F)(F)F)c1 [Alpelisib] (partner 2 µM)
1.33

Let us now turn to C=C1C(=O)O[C@@H](CCCCCCCC)[C@@H]1C(=O)O [C-75] + Cc1nc(Nc2ncc(C(=O)Nc3c(C)cccc3Cl)s2)cc(N2CCN(CCO)CC2)n1 [Dasatinib] (partner 0.075 µM)
0.303

The origin of these recorded values is the supplement of paper PMC10307832.
